B1: FAM50A (parent)
chain: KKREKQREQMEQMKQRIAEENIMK

Variants of: B1
Method Summary: protein stability index of a GFP-peptide fusion (GPS, HEK-293T) (PSI 1-6); higher = more stable;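 note: lentivirally expressed fusions sorted by FACS into six bins by GFP to DsRed ratio, PSI derived from sequencing read proportions per bin multiplied by bin number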
Run Conditions: c terminus: a fixed tail appended
Exercise: for every item that follows, state its recorded protein stability index.

I17M : 4.87
K1G : 4.9

Go through the items and report each one's protein stability index.
1. Q15L
2. N21S
3. Q6E
4. M13Q

# output
1: 4.7; 2: 4.75; 3: 4.81; 4: 5.26

Go through the items and report each one's protein stability index.
1. R7F
2. K24G
3. R16C
4. E4M
5. M23R
6. K2Q

# output
[4.52, 4.99, 4.81, 4.5, 3.3, 4.75]

// data source = the supplement of paper PMC10567573
